Reference source for all entries: patent US20100249243A1

target: ERα (Homo sapiens, UniProt P03372); experiment: ERα luciferase reporter (pERE2TATA-LUC) transactivation assay in transfected HEK293 cells; assay type: cell-based; parameters: expressed in transfected cells; host or cells: HEK293; details: Table 2, previously published compounds, test compound 10 μM, 24 hours
So basically: ERα in vitro activity (receptor activation relative to 10 nM E2) at 40% or higher? That is label 1. Lower than 40%? That is label 0.

compound: COC(CCc1ccccc1)CC(=O)c1ccccc1 (stereo not drawn) [Compound 62ab, 3-Methoxy-1,5-diphenyl-pentan-1-one]
label-class: label 0
//
compound: O=C(CCc1ccccc1)CC(O)c1ccccc1 (single isomer, unassigned) [Compound 56a, 1-Hydroxy-1,5-diphenyl-pentan-3-one]
label-class: label 1
//
compound: O=C(CC(O)CCc1ccccc1)c1ccccc1 (single isomer, unassigned) [Compound 54a, 3-Hydroxy-1,5-diphenyl-pentan-1-one]
label-class: label 0

Assess whether reported ERα in vitro activity (receptor activation relative to 10 nM E2) for O=C(CCCc1ccccc1)CC(O)c1ccccc1 (single isomer, unassigned) [Compound 59a, 1-Hydroxy-1,6-diphenyl-hexan-3-one] sits at 40% or higher. label 1

// inclusive: ERα in vitro activity (receptor activation relative to 10 nM E2) at least 40%? input: CC(O)(CC(=O)CCCc1ccccc1)c1ccccc1 (stereo not drawn) [Compound 60ab, 6-Hydroxy-1,6-diphenyl-heptan-4-one] label 1

Test whether the compound O=C(CC(O)CCc1ccccc1)c1ccccc1 (single isomer, unassigned) [Compound 54b, 3-Hydroxy-1,5-diphenyl-pentan-1-one] records ERα in vitro activity (receptor activation relative to 10 nM E2) of 40% or higher. label 0

----------
ERα in vitro activity (receptor activation relative to 10 nM E2) values, listed per item
molecular target: ERα (Homo sapiens, UniProt P03372); assay: ERα luciferase reporter (pERE2TATA-LUC) transactivation assay in transfected HEK293 cells; assay type: cell-based; set-up: expressed in transfected cells; host or cells: HEK293; conditions: Table 2, previously published compounds, test compound 10 μM, 24 hours
Report only the number, with the unit % understood.

Study these solved cases before continuing.
molecule: O=C(CCCc1ccccc1)CC(O)c1ccccc1 (single isomer, unassigned) [Compound 59b, 1-Hydroxy-1,6-diphenyl-hexan-3-one]
result-units: %
value-observed: 59.3
//
molecule: O=C(Cc1ccccc1)CC(O)c1ccccc1 (stereo not shown) [Compound 55ab, 4-Hydroxy-1,4-diphenyl-butan-2-one]
result-units: %
value-observed: 0.8
//
molecule: CC(O)(CC(=O)CCc1ccccc1)c1ccccc1 (stereo not shown) [Compound 57ab, 5-Hydroxy-1,5-diphenyl-hexan-3-one]
result-units: %
value-observed: 52.1
//
molecule: O=C(CCc1ccccc1)CC(O)Cc1ccccc1 (stereo not shown) [Compound 58ab, 5-Hydroxy-1,6-diphenyl-hexan-3-one]
result-units: %
value-observed: 12.8
//
molecule: O=C(CCc1ccccc1)CC(O)c1ccccc1 (single isomer, unassigned) [Compound 56b, 1-Hydroxy-1,5-diphenyl-pentan-3-one]
result-units: %
value-observed: 25.3
//
molecule: O=C(CC(O)Cc1ccccc1)c1ccccc1 (stereo not shown) [Compound 53ab, 3-Hydroxy-1,4-diphenyl-butan-1-one]
result-units: %
value-observed: 5.3

The record that follows has no ERα in vitro activity (receptor activation relative to 10 nM E2) shown yet.
Could you share which ERα in vitro activity (receptor activation relative to 10 nM E2) value was measured for COC(CC(=O)c1ccccc1)Cc1ccccc1 (stereo not shown) [Compound 61ab, 3-Methoxy-1,4-diphenyl-butan-1-one] ? 0.3

----------
target: UniProtKB P03372; test: ERα luciferase reporter (pERE2TATA-LUC) transactivation assay in transfected HEK293 cells; format: cell-based; parameters: expressed in transfected cells; host or cells: HEK293; conditions: Table 1, sample concentration 10 μM, 24 hours, mean of at least three independent transfections, SEM typically <15%
measure: ERα receptor activation relative to 10 nM E2 corresponding 100
Field: value (include unit after the number)

Consider the following illustrative entries.
molecule: COC(CC(=O)CCc1ccccc1)Cc1ccccc1 (centres unmarked) [Compound 46ab, 5-Methoxy-1,6-diphenyl-hexan-3-one]
value-observed: 9.9%
//
molecule: O=C(CCc1ccc(O)cc1)CC(O)Cc1ccc(F)cc1 (centres unmarked) [Compound 33ab]
value-observed: 28.6%
//
molecule: O=C(CCCc1ccccc1)CC(O)Cc1ccc(O)cc1 (centres unmarked) [Compound 39ab]
value-observed: 16.0%
//
molecule: O=C(Cc1ccccc1)CC(O)c1cccc(O)c1 (centres unmarked) [Compound 19ab]
value-observed: 12.0%
//
molecule: O=C(CC(O)Cc1ccccc1)c1ccc(O)cc1 (centres unmarked) [Compound 18ab]
value-observed: 22.6%
//
molecule: O=C(CCc1ccccc1)CC(O)Cc1ccc(F)cc1 (centres unmarked) [Compound 26ab]
value-observed: 35.0%

API: value(readout=ERα receptor activation relative to 10 nM E2 corresponding 100, system=UniProtKB P03372) for record O=C(CCc1ccccc1O)CC(O)Cc1ccc(F)cc1 (centres unmarked) [Compound 32ab] 21.6%

Form field: ERα receptor activation relative to 10 nM E2 corresponding 100 recorded for COc1ccc(CC(O)CC(=O)CCc2ccccc2)cc1 (single isomer, unassigned) [Compound 24b] with UniProtKB P03372 (enter value) 1.3%

Return ERα receptor activation relative to 10 nM E2 corresponding 100 measured with UniProtKB P03372 given this molecule: O=C(CCCc1ccc(O)cc1)CC(O)c1ccccc1 (single isomer, unassigned) [Compound 34b] 140.0%

What value of ERα receptor activation relative to 10 nM E2 corresponding 100 on UniProtKB P03372 does O=C(CCc1ccccc1)CC(O)Cc1ccc(O)cc1 (centres unmarked) [Compound 25ab] have? 51.4%

Observed ERα receptor activation relative to 10 nM E2 corresponding 100 on UniProtKB P03372 for O=C(Cc1cccc(F)c1)CC(O)CCc1ccccc1 (centres unmarked) [Compound 21ab] , please. 25.1%

----------
Target: ERα (Homo sapiens, UniProt P03372)
Sequence (P03372 1-595): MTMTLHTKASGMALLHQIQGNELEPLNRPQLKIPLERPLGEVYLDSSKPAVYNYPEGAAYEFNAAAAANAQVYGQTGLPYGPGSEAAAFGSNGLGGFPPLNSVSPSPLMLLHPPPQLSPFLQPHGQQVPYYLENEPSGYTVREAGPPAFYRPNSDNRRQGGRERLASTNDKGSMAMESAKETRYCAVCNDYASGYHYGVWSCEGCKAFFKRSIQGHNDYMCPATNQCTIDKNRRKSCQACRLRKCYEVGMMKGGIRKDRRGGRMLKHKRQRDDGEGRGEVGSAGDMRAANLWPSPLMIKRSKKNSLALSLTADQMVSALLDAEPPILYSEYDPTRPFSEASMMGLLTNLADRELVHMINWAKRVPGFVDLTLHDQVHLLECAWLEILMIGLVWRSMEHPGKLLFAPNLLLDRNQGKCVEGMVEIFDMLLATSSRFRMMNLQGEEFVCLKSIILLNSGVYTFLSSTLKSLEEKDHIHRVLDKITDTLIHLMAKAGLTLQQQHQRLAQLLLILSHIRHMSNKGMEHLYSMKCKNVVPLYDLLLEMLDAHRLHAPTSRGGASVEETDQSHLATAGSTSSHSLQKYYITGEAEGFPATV
Experiment: Competitive binding assay against [6,7-3H(N)]estradiol in transiently transfected COS-1 cells, ERα
Conditions: in comparison to E2 = 100
Rule for this label: true means ERα RBA (relative binding affinity) is less than 0.2%; false means ERα RBA (relative binding affinity) is at least 0.2%.

compound: O=C(CCCc1ccc(O)cc1)CC(O)c1ccccc1 (single isomer, unassigned) [Compound 34b]
label-class: false

compound: O=C(CCCc1ccc(O)cc1)CC(O)Cc1ccccc1 (stereo not shown) [Compound 40ab]
label-class: false

compound: O=C(CCCc1ccccc1)CC(O)c1ccccc1 (single isomer, unassigned) [Compound 59a, 1-Hydroxy-1,6-diphenyl-hexan-3-one]
label-class: true

is_below(ERα RBA (relative binding affinity), 0.2%) for O=C(CCCc1ccc(O)cc1)CC(O)c1ccccc1 (single isomer, unassigned) [Compound 34a] ? false

Problem: For the compound O=C(CCCc1ccccc1)CC(O)c1ccccc1 (single isomer, unassigned) [Compound 59b, 1-Hydroxy-1,6-diphenyl-hexan-3-one] , is ERα RBA (relative binding affinity) under 0.2%? true

API: query returns whether the compound falls strictly under 0.2% in ERα RBA (relative binding affinity). Query: CC(O)(CC(=O)CCCc1ccccc1)c1ccccc1 (stereo not shown) [Compound 36ab, 6-Hydroxy-1,6-diphenyl-heptan-4-one] false

Field: below-cutoff. Rule: recorded ERα RBA (relative binding affinity) strictly less than 0.2%. Subject: O=C(CCc1ccc(O)cc1)CC(O)Cc1ccccc1 (stereo not shown) [Compound 31ab] true

----------
biological target: UniProtKB Q92731; assay: ERβ luciferase reporter (pERE2TATA-LUC) transactivation assay in transfected HEK293 cells; assay type: cell-based; parameters: expressed in transfected cells; host or cells: HEK293; conditions: HEK293, 24 h, read-out: ERβ in vitro activity (receptor activation relative to 10 nM E2), Table 2, previously published compounds, test compound 10 μM
Sequence (Q92731 whole entry): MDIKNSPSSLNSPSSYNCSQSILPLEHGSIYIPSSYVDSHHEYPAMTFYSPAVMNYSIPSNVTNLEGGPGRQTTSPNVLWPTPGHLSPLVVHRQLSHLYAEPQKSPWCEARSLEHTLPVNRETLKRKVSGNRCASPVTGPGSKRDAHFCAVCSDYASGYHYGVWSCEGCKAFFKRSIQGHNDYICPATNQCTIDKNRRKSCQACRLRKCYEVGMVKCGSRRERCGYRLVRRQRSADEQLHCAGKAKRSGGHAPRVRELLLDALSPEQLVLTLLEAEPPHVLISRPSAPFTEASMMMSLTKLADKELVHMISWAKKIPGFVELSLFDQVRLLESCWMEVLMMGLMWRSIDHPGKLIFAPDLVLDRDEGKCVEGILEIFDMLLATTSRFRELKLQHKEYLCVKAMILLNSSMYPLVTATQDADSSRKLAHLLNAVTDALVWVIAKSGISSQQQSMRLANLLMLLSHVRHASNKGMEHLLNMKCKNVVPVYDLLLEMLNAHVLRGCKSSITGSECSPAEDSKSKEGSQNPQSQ
Item-by-item account of Emax at 10 µM
Numbers only here, please. The scale is %.

compound: O=C(CC(O)Cc1ccccc1)c1ccccc1 (stereo not shown) [Compound 53ab, 3-Hydroxy-1,4-diphenyl-butan-1-one]
measure: Emax at 10 µM
result-units: %
value-observed: 16.9
//
compound: O=C(Cc1ccccc1)CC(O)c1ccccc1 (stereo not shown) [Compound 55ab, 4-Hydroxy-1,4-diphenyl-butan-2-one]
measure: Emax at 10 µM
result-units: %
value-observed: 1.6
//
compound: COC(CC(=O)c1ccccc1)Cc1ccccc1 (stereo not shown) [Compound 61ab, 3-Methoxy-1,4-diphenyl-butan-1-one]
measure: Emax at 10 µM
result-units: %
value-observed: 18.4

Report Emax at 10 µM for COC(CCc1ccccc1)CC(=O)c1ccccc1 (stereo not shown) [Compound 62ab, 3-Methoxy-1,5-diphenyl-pentan-1-one] tested on UniProtKB Q92731. 28.8

So what Emax at 10 µM did CC(O)(CC(=O)CCc1ccccc1)c1ccccc1 (stereo not shown) [Compound 57ab, 5-Hydroxy-1,5-diphenyl-hexan-3-one] get with UniProtKB Q92731? 38.4

Checklist item: Emax at 10 µM tested on UniProtKB Q92731, entry CC(O)(CC(=O)CCCc1ccccc1)c1ccccc1 (stereo not shown) [Compound 60ab, 6-Hydroxy-1,6-diphenyl-heptan-4-one] , value? 15.1

Which measured Emax at 10 µM belongs to O=C(CCc1ccccc1)CC(O)Cc1ccccc1 (stereo not shown) [Compound 58ab, 5-Hydroxy-1,6-diphenyl-hexan-3-one] , tested on UniProtKB Q92731? 0.4
